- test.system: epithelial sodium channel (ENaC) (Mus musculus, UniProt Q61180+Q9WU38+Q9WU39)
- Construct: Mouse kidney M-1 cells were cultivated in DMEM containing 5% FCS and 5 μM dexamethasone; endogenous in cells
- experimental.details: Ussing chamber: inhibition of amiloride sensitive short circuit current (I_sc) in M-1 cells
- conditions.used: Mouse kidney M-1 cells on transwell filters, Ussing chamber at 37° C., compound added to the apical solution
value.kind: IC50

N/C(=N\C(=O)c1nc(Cl)c(N)nc1N)NCC1(CCc2ccccc2)CCN(C(=O)NCCCCCCNC(=O)N2CCC(CCc3ccccc3)(CN/C(N)=N/C(=O)c3nc(Cl)c(N)nc3N)CC2)CC1 : 97 nM
COC(=O)CCC(=O)N1CCC(CNC(N)=NC(=O)c2nc(Cl)c(N)nc2N)(Cc2ccccc2)CC1 : 75 nM
COC(=O)CCNC(=O)N1CCC(CCc2ccccc2)(CNC(N)=NC(=O)c2nc(Cl)c(N)nc2N)CC1 : 24 nM

Below is a list of compounds. For each, state its recorded IC50.
1. C[N+](C)(C)CCCC(=O)N1CCC(CCc2ccccc2)(CNC(N)=NC(=O)c2nc(Cl)c(N)nc2N)CC1
2. NC(=NC(=O)c1nc(Cl)c(N)nc1N)NCC1(CCc2ccccc2)CCN(C(=O)c2ccccc2)CC1

["15 nM", "34 nM"]

Answer for every listed entry: what is its IC50? The entries follow.
1. NC(=NC(=O)c1nc(Cl)c(N)nc1N)NCC1(CCc2ccccc2)CCN(C(=O)NCC(=O)O)CC1
2. NCCNC(=O)N1CCC(CNC(N)=NC(=O)c2nc(Cl)c(N)nc2N)(Cc2ccccc2)CC1

1: 10.1 nM; 2: 17 nM

---

- test.system: epithelial sodium channel (ENaC) (Mus musculus, UniProt Q61180+Q9WU38+Q9WU39)
- Construct: Mouse kidney M-1 cells were cultivated in DMEM containing 5% FCS and 5 μM dexamethasone; endogenous in cells
- Sequence (Q61180 1-699): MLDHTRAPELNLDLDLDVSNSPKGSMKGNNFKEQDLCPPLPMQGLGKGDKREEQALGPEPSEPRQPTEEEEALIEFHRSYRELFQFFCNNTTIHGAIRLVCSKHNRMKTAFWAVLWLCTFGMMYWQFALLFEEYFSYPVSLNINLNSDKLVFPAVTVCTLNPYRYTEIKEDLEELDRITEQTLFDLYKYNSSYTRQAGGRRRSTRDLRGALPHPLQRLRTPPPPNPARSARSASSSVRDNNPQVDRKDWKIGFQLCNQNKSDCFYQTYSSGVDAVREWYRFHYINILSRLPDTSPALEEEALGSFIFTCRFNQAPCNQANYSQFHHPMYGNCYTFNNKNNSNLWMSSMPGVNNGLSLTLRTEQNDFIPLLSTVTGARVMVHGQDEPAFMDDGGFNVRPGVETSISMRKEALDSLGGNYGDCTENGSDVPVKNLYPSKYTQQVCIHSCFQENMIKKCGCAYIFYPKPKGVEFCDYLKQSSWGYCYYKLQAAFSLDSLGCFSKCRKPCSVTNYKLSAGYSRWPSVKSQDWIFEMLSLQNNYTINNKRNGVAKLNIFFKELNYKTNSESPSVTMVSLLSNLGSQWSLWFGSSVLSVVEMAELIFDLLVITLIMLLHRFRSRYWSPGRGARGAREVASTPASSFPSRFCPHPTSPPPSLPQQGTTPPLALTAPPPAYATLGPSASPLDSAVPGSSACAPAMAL
- Sequence (Q9WU38 1-638): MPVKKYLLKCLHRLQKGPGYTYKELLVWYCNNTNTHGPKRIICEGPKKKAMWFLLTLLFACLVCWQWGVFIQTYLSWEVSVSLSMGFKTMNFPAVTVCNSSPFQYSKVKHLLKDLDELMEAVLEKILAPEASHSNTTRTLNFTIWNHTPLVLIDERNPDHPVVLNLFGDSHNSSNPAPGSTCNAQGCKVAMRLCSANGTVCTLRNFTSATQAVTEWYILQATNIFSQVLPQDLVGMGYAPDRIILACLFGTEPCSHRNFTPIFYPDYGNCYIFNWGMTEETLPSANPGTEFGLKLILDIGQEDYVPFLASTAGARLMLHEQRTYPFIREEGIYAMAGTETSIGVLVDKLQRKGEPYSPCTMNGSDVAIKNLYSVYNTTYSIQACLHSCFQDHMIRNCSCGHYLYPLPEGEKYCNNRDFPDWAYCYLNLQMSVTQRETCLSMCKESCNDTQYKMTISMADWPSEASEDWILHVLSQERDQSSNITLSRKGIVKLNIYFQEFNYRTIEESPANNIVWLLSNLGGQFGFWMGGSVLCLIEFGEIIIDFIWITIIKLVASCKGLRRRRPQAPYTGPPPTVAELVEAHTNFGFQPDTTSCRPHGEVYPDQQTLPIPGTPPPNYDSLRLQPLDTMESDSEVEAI
- Sequence (Q9WU39 1-655): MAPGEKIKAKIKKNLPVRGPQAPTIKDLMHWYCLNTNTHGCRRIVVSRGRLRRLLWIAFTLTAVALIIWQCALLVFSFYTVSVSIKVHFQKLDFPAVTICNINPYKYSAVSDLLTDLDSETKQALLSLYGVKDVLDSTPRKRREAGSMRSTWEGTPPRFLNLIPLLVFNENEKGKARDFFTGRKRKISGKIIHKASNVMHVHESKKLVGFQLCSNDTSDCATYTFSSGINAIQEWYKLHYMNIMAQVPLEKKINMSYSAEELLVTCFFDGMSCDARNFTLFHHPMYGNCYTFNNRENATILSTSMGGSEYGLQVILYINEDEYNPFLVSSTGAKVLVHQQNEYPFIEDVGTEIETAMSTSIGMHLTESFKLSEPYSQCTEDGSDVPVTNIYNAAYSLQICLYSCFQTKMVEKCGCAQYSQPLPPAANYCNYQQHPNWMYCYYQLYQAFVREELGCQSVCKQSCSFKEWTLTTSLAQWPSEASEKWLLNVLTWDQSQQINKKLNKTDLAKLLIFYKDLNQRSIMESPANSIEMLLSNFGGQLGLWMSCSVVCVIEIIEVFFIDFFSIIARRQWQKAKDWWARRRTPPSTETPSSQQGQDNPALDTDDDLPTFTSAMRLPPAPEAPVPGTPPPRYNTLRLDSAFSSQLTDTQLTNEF
- experimental.details: Ussing chamber: inhibition of amiloride sensitive short circuit current (I_sc) in M-1 cells
- conditions.used: Mouse kidney M-1 cells on transwell filters, Ussing chamber at 37° C., compound added to the apical solution
value.kind: pIC50
Give bare numbers, as −log10 of the molar value.

Give one value of pIC50 per listed compound.
1. CN(C)CCCNC(=O)N1CCC(CNC(N)=NC(=O)c2nc(Cl)c(N)nc2N)(Cc2ccccc2)CC1
2. C[N+]1(C)CCC(CCc2ccccc2)(CNC(N)=NC(=O)c2nc(Cl)c(N)nc2N)CC1
3. COC(=O)c1ccc(CCC2(CNC(N)=NC(=O)c3nc(Cl)c(N)nc3N)CCN(C(=O)OC(C)(C)C)CC2)cc1
4. COC(=O)c1ccc(CCC2(CNC(N)=NC(=O)c3nc(Cl)c(N)nc3N)CCN(C(=O)NCC[N+](C)(C)C)CC2)cc1

1. 7.38
2. 7.04
3. 7.25
4. 7.13

Report pIC50 for each item below.
1. NC(=O)N1CCC(CCc2ccccc2)(CNC(N)=NC(=O)c2nc(Cl)c(N)nc2N)CC1
2. CC(C)(C)OC(=O)NCCCN1CCC(CNC(N)=NC(=O)c2nc(Cl)c(N)nc2N)(Cc2ccccc2)CC1
3. COC(=O)CN1CCC(CCc2ccccc2)(CNC(N)=NC(=O)c2nc(Cl)c(N)nc2N)CC1
4. NC(=NC(=O)c1nc(Cl)c(N)nc1N)NCC1(CCc2ccccc2)CCN(Cc2ccccc2)CC1

1. 7.57
2. 7.19
3. 8.70
4. 7.40

Need pIC50, item "NCCC(=O)N1CCC(CNC(N)=NC(=O)c2nc(Cl)c(N)nc2N)(Cc2ccccc2)CC1"
7.03
